pIC50: −log10 of the molar value.
Field: pIC50. System: DGKα (Homo sapiens). Provenance: assorted publications.

Take a look at these entries with their results.
| compound | readout-value |
| --- | --- |
| Cn1c(=O)c(C#N)c(N(C)[C@H]2CC[C@H](N(CC3CC3)c3cccc(F)c3)CC2)c2nc(Cl)ccc21 | 7.00 to 8.00 |
| COc1cccc(COC2CCN(c3c(C#N)c(=O)n(C)c4ccccc34)CC2)c1 | 7.54 |

Exercise: # returns recorded pIC50 (system: DGKα (Homo sapiens)) for CCOC(=O)C1CCC(N(Cc2nnnn2-c2ccc(Cl)c(C#N)n2)C2CC2)CC1 (centres unmarked)
Solution: 4.96

---

Field: IC50. System: DGKα (Homo sapiens). Provenance: assorted publications.

Take a look at these entries with their results.
| compound | IC50 |
| --- | --- |
| COc1ccc(-n2nnnc2CN(C)C2CCCCC2)cc1C#N | 900 nM |
| CCOC(=O)c1ccc(OC2CCN(c3c(C#N)c(=O)n(C)c4ccccc34)CC2)cc1 | 12 nM |
| COc1ccc2c(N3CCC(Sc4ccccc4)CC3)c(C#N)c(=O)n(C)c2c1 | 1.7 nM |
| CC(C)Oc1ccc(OC2CCN(c3c(C#N)c(=O)n(C)c4ccccc34)CC2)cc1 | 8.6 nM |
| Cc1cc(F)ccc1N(C[C@H]1CCOC1)[C@H]1CC[C@H](N(C)c2c(C#N)c(=O)n(C)c3ccc(C#N)nc23)CC1 | 100 to 1000 nM |
| Cc1cc(Br)c2c(c1)c(N1CCC(Oc3ccc(OC(F)(F)F)cc3)CC1)c(C#N)c(=O)n2C | 556 nM |
| Cc1ccc(COC2CCN(c3c(C(N)=O)c(=O)n(C)c4ccccc34)CC2)cc1 | 7.1 nM |
| CCN(Cc1nnnn1-c1ccc(Cl)c(C#N)c1)C1CCCCC1 | 90 nM |

Now look at this entry.
Exercise: # lookup: IC50 of `CN(Cc1nnnn1-c1cccc(Cl)c1)C1CCCCC1`
Solution: 11000 nM

---

Field: IC50. System: DGKα (Homo sapiens). Provenance: assorted publications.
Just the number in nM, nothing appended.

Take a look at these entries with their results.
| smiles-str | readout-value |
| --- | --- |
| Cn1c(=O)c(C#N)c(N2CCC(OCc3ccccc3)CC2)c2ccccc21 | 8.3 |
| CC(C)N(C)Cc1nnnn1-c1ccc(Cl)c(C#N)c1 | 8800 |

Exercise: # returns recorded IC50 (system: DGKα (Homo sapiens)) for `CN(Cc1nnnn1-c1ccc(Cl)cc1)C1CCCCC1`
Solution: 3500

Exercise: # returns recorded IC50 (system: DGKα (Homo sapiens)) for `COc1ccccc1CC1CCN(c2c(C#N)c(=O)n(C)c3ccccc23)CC1`
Solution: 28

Exercise: # returns recorded IC50 (system: DGKα (Homo sapiens)) for `Cn1nnc2nc(N3CCCOc4c(C#CC(C)(C)C#N)cccc43)c3c(F)cncc3c21`
Solution: 10.2

---

Field: IC50. System: DGKα (Homo sapiens, UniProt P23743). Provenance: assorted publications.
Sequence (P23743 whole entry): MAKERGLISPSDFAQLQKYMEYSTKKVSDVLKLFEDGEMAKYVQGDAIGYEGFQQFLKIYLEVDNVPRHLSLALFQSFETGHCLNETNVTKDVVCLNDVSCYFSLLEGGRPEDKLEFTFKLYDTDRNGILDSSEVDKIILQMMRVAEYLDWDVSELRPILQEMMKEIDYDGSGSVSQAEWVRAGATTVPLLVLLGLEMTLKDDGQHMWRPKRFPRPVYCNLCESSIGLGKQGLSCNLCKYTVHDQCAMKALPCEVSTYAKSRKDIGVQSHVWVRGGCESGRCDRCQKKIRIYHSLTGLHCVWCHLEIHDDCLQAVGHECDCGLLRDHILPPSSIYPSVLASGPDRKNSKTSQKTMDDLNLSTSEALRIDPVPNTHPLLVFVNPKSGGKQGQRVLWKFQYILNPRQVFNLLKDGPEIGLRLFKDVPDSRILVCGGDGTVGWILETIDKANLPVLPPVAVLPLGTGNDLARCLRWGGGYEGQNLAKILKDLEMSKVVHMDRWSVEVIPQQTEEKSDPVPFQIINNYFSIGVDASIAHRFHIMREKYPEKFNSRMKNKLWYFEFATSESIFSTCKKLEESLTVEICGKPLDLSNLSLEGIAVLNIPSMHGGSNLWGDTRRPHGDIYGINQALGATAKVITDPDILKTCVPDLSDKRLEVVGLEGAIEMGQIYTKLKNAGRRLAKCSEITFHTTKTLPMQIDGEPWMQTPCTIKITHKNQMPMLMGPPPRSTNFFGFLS
Class boundaries, taken from values of IC50, are as follows: low-valued = under 10 nM, mid-valued = from 10 nM up to 200 nM, high-valued = 200 nM and over

Solved cases below.
| smiles-str | class-name |
| --- | --- |
| CCCN(Cc1nnnn1-c1ccc(Cl)c(C#N)n1)C1CCCCC1 | high-valued |
| Cc1ccc2c(c1)c(N1CCC(Oc3ccc(OC(F)(F)F)cc3)CC1)c(C#N)c(=O)n2C | low-valued |
| Cn1c(=O)c(C#N)c(N2CCC(Oc3ccc(N4CCCC4=O)cc3)CC2)c2ccccc21 | mid-valued |
| COc1cc(N(CC2CC2)[C@H]2CC[C@@H](N(C)c3c(C#N)c(=O)n(C)c4ccc(C#N)nc34)CC2)cc(OC)c1F | high-valued |
| COc1ccccc1OC1CCN(c2c(C#N)c(=O)n(C)c3ccc(C)cc23)CC1 | mid-valued |
| Cc1ccc2c(c1)c(N1CCC(Oc3ccccc3C)CC1)c(C#N)c(=O)n2C | mid-valued |

Exercise: Lab note: sort `Cn1c(=O)c(C#N)c(N2CCC(Oc3ccc(OC(F)(F)F)cc3)CC2)c2ccc(P(C)(C)=O)cc21` into the matching IC50 band.
Solution: high-valued

Exercise: Lab note: sort `Cc1cc(F)cc(N(CC2CC2)[C@H]2CC[C@H](N(C)c3cc(=O)n(C)c4ccc(C#N)nc34)CC2)c1` into the matching IC50 band.
Solution: high-valued

Exercise: Lab note: sort `Cn1c(=O)c(C(N)=O)c(N2CCC(Oc3ccc(Cl)cc3)CC2)c2ccccc21` into the matching IC50 band.
Solution: low-valued

Exercise: Lab note: sort `Cn1c(=O)c(C#N)c(N2CCC(Oc3ccc(OC(F)(F)F)cc3)CC2)c2ccc(F)cc21` into the matching IC50 band.
Solution: mid-valued

---

Field: IC50. System: UniProt P23743. Provenance: assorted publications.

| molecule | readout-value |
| --- | --- |
| CN1C(=O)COc2ccc(N(CC3CC3)[C@H]3CC[C@@H](N(C)c4c(C#N)c(=O)n(C)c5ccc(C#N)nc45)CC3)cc21 | ≥ 1 µM |
| Cn1c(=O)c([N+](=O)[O-])c(N2CCC(N(CC3(C)COC3)c3ccccc3)CC2)c2nc(C#N)ccc21 | 0.1 to 1 µM |
| CCC1CN(C(c2ccc(F)cc2)c2nc(C3CC3)no2)C(CC)CN1c1nc(=O)n(C)c2ccc(C#N)nc12 (single isomer, unassigned) | 0.014 µM |
| Cc1cc(F)ccc1N(CC1CC(F)(F)C1)[C@H]1CC[C@H](N(C)c2c(C#N)c(=O)n(C)c3ccc(C#N)nc23)CC1 | 0.1 to 1 µM |
| Cn1c(=O)cc(N(C)[C@H]2CC[C@@H](N(CC3CC3)c3ccc(F)c(OC4CC4)c3)CC2)c2nc(C#N)ccc21 | 0.1 to 1 µM |
| Cn1nnc2nc(N3CCCc4c(C#CC(C)(C)O)cncc43)c3c(F)cncc3c21 | 0.093 µM |

Now look at this entry.
Exercise: # returns recorded IC50 (system: UniProt P23743) for `COc1cc(F)ccc1N(CC1CC1)[C@H]1CC[C@@H](N(C)c2cc(=O)n(C)c3ccc(C#N)nc23)CC1`
Solution: 0.1 to 1 µM

---

Field: IC50. System: DGKα (Homo sapiens, UniProt P23743). Provenance: assorted publications.
Just the number in nM, nothing appended.

| smiles-str | measurement-target | IC50 (nM) |
| --- | --- | --- |
| CN(Cc1nnnn1-c1cc(C#N)c(=O)n(C)c1)C1CCCCC1 | DGKα (Homo sapiens, UniProt P23743) | 56000 |
| Cn1nnc2nc(N3CCCc4c(C#CC(C)(C)C#N)cncc43)c3c(F)cccc3c21 | DGKα (Homo sapiens, UniProt P23743) | 160 |
| Cn1c(=O)c([N+](=O)[O-])c(N2CCN(Cc3cccc(F)c3)CC2)c2cc(F)ccc21 | DGKα (Homo sapiens, UniProt P23743) | 7.3 |

Exercise: # lookup: IC50 of `Cc1ccc2c(c1)c(N1CCC(Oc3ccc(OC(F)(F)F)cc3)CC1)c(C(N)=O)c(=O)n2C`
Solution: 3.1

Exercise: # lookup: IC50 of `N#Cc1cc(-n2nnnc2CN(CC2CC2)C2CCCCC2)ccc1Cl`
Solution: 250

Exercise: # lookup: IC50 of `Cn1c(=O)c(C#N)c(N2CCC(Oc3cccc(OC(F)(F)F)c3)CC2)c2ccccc21`
Solution: 18

Exercise: # lookup: IC50 of `CC(C)CN(C)Cc1nnnn1-c1ccc(Cl)c(C#N)n1`
Solution: 24000

Exercise: # lookup: IC50 of `Cc1ccc2c(c1)c(N1CCC(Oc3ccc(F)cc3)CC1)c(C#N)c(=O)n2C`
Solution: 7.7

Exercise: # lookup: IC50 of `CCC1(C#Cc2cccc3c2OCCCN3c2nc3nnn(C)c3c3cncc(F)c23)COC1`
Solution: 10.5

Exercise: # lookup: IC50 of `CN(Cc1nnnn1-c1ccc(F)nc1)C1CCCCC1`
Solution: 16000

Exercise: # lookup: IC50 of `CN(Cc1nnnn1-c1ccc([N+](=O)[O-])cc1)C1CCCCC1`
Solution: 13000

Exercise: # lookup: IC50 of `Cn1nnc2nc(N(CC(F)F)c3ccnc(C#CC(C)(C)O)c3)c3cc(F)ccc3c21`
Solution: 143

Exercise: # lookup: IC50 of `Cn1c(=O)c(C#N)c(N2CCC(OCc3ccccc3F)CC2)c2ccccc21`
Solution: 4.8

Exercise: # lookup: IC50 of `Cn1c(=O)c(C#N)c(N2CCC(C)(Oc3ccc(N)cc3)CC2)c2ccccc21`
Solution: 173
